- TEST_TARGET: human TRPM8 (Homo sapiens)
- Construct: expressed in transfected cells; host or cells: Chinese hamster ovary (CHO) cells, T-REx tetracycline-inducible expression system (Invitrogen); co-transfected with pcDNA3.1 aequorin
- Sequence (Q7Z2W7 whole entry): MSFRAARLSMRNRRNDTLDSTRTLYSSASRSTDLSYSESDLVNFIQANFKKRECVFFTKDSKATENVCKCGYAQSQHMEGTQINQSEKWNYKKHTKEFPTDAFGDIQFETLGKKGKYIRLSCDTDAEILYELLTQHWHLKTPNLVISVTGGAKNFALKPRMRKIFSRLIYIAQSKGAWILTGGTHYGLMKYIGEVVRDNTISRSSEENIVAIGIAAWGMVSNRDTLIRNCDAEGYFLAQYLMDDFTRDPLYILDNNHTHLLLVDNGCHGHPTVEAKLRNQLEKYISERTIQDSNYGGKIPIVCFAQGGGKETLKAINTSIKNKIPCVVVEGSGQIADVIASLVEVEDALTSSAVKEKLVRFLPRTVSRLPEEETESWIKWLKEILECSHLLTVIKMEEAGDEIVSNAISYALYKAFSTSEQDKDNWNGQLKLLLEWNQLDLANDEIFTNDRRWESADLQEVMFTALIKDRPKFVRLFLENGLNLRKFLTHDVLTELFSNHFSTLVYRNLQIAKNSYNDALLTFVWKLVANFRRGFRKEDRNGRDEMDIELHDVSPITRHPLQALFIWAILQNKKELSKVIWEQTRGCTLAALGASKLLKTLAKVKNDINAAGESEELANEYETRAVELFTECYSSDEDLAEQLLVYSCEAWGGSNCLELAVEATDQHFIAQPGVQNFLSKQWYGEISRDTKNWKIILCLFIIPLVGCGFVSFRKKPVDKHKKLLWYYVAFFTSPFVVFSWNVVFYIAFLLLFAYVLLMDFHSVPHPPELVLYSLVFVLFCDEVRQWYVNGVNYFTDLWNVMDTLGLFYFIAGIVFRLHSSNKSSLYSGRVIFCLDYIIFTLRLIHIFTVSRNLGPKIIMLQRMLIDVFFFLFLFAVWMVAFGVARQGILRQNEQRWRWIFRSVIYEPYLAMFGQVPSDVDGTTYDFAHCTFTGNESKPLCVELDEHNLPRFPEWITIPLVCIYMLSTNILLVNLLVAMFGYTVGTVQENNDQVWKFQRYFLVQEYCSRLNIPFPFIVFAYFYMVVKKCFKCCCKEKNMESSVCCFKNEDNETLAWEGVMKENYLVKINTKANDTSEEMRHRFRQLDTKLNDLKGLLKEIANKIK
- MEASUREMENT_DESCRIPTION: Luminescence readout assay for measuring intracellular calcium (aequorin, CHO cells expressing human TRPM8; icilin, L-menthol or cold activation)
- Format: cell-based
- MEASUREMENT_CONDITIONS: CHO cells expressing human TRPM8, icilin activation (1 μM), aequorin luminescence; read-out: hTRPM8 IC50
pIC50: −log10 of the molar value. Structures can show the parent of a compound that is named as a salt.
Label condition not met if pIC50 falls below 7; label condition met in every other case.

Examples with answers:
compound=O=C(O)c1c[nH]c(C(=O)N[C@]2(c3ccc(OC(F)(F)F)c(F)c3)CCOc3cccnc32)c1 classification="condition not met"
compound=CCc1cc(C(=O)N[C@]2(c3ccc(OC(F)(F)F)c(F)c3)CCOc3cccnc32)ccc1C(=O)O classification="condition met"
compound=O=C(O)c1cnc(C(=O)N[C@]2(c3ccc(OC(F)(F)F)c(F)c3)CCOc3cccnc32)cn1 classification="condition not met"
compound=CS(=O)(=O)c1ccccc1-c1ccc([C@@]2(NC(=O)c3ccc(F)cc3)CCOc3cccnc32)cc1 classification="condition not met"
compound=Cc1noc(C)c1-c1ccc([C@@]2(NC(=O)c3ccc(F)cc3)CCOc3cccnc32)cc1 classification="condition not met"
compound="O=C(N[C@]1(c2ccc(OC(F)(F)F)cc2)CCOc2cccnc21)c1cnc2ccccc2c1 [Example 252, formate]" classification="condition met"
compound=O=C(N[C@]1(c2ccc(OC(F)(F)F)c(F)c2)CCOc2cccnc21)c1ccc(Br)cn1 classification="condition met"
compound=CC(C)(C)OC(=O)N[C@]1(c2ccc(OC(F)(F)F)c(F)c2)CCOc2cccnc21 classification="condition met"

Confirm if pIC50 reported for the compound O=C(N[C@]1(c2ccc(OC(F)(F)F)c(F)c2)CCOc2cccnc21)c1ccc(C(=O)C(F)(F)F)cc1 [Example 160, 2,2,2-trifluoroacetate] is 7 or above.
condition met
